# Test system: LOC_OS01G02750-cb003
# assay overview: thermal shift delta Tm vs DMSO control; higher = stronger stabilization (binding);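 note: purified Escherichia coli-expressed rice kinase domain construct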
# particulars: 12.5 µM; protein concentration 2 µM
Tick True if thermal shift delta Tm is 2 °C or greater. Tick False if thermal shift delta Tm is less than 2 °C.

molecule: Nc1nccc(Oc2ccc(NC(=O)c3c[nH]cc(-c4ccc(F)cc4)c3=O)cc2F)c1Cl
group: True

molecule: CC#CC(=O)Nc1ccc2ncnc(Nc3cccc(Br)c3)c2c1
group: False

molecule: O=C1Nc2ccc(CN3C(=O)CSC3=O)cc2/C1=C/c1cc(CN2CCOCC2)c[nH]1
group: True

molecule: CN(C)C/C=C/C(=O)Nc1cc2c(Nc3ccc(F)c(Cl)c3)ncnc2cc1O[C@H]1CCOC1 [Afatinib (BIBW2992)]
group: False

molecule: COC(=O)[C@]12CCC(C)(C)C[C@H]1[C@H]1C(=O)C=C3[C@@]4(C)C=C(C#N)C(=O)C(C)(C)[C@@H]4CC[C@@]3(C)[C@]1(C)CC2 [Bardoxolone Methyl]
group: False

molecule: COC1(c2sc3c(N4CCOCC4)nc(-c4cnc(N)nc4)nc3c2C)COC1
group: False

molecule: CC(C)(C)c1nc(-c2ccc(NC(=O)Nc3cccc(C(F)(F)F)c3)c3ccccc23)c2c(N)nccn12 [kira6]
group: True

molecule: CN1CCN(c2ccc(OC(F)(F)F)c(Nc3ncc4c(n3)-c3c(c(C(N)=O)nn3CCO)CC4)c2)CC1
group: False

---

# Tested on: LOC_OS01G14860-cb001
# assay overview: thermal shift delta Tm vs DMSO control; higher = stronger stabilization (binding)
# particulars: 12.5 µM; protein concentration 2 µM

molecule: Cc1ccc(Nc2nccc(N(C)c3ccc4c(C)n(C)nc4c3)n2)cc1S(N)(=O)=O
target under test: LOC_OS01G14860-cb001
thermal shift delta Tm: 1.21 °C
--
molecule: CC(C)n1nc(-c2ccc3oc(N)nc3c2)c2c(N)ncnc21
target under test: LOC_OS01G14860-cb001
thermal shift delta Tm: 0.42 °C
--
molecule: O=C1NC(=O)/C(=C/c2cccc(C(F)(F)F)c2)S1
target under test: LOC_OS01G14860-cb001
thermal shift delta Tm: 0.12 °C
--
molecule: CC(C)(C)c1cc(NC(=O)Nc2ccc(Oc3ccnc4[nH]c(=O)cnc34)cc2F)n(-c2ccccc2)n1
target under test: LOC_OS01G14860-cb001
thermal shift delta Tm: 6.67 °C
--
molecule: CC(C)c1c2cc(-c3ccnc(NC4CCC(NC5CCOCC5)CC4)n3)ccc2nn1C (stereo not given)
target under test: LOC_OS01G14860-cb001
thermal shift delta Tm: 7.15 °C
--
molecule: Cc1c(NC(=O)OC[C@@H]2COCCN2)cn2ncnc(Nc3ccc4c(cnn4Cc4cccc(F)c4)c3)c12
target under test: LOC_OS01G14860-cb001
thermal shift delta Tm: 0.19 °C
--
molecule: O=C(/C=C/c1ccc2ccccc2n1)c1ccncc1
target under test: LOC_OS01G14860-cb001
thermal shift delta Tm: 1.08 °C
--
molecule: Cc1cc(CS(=O)(=O)c2ccccc2)cc(OCc2ccc(CN3CCC[C@@H]3CO)cc2)c1
target under test: LOC_OS01G14860-cb001
thermal shift delta Tm: -0.13 °C
--
molecule: O=C1NC(=O)C(c2cnc3ccccn23)=C1c1cn2c3c(cc(F)cc13)CN(C(=O)N1CCCCC1)CC2
target under test: LOC_OS01G14860-cb001
thermal shift delta Tm: 4.55 °C
--
molecule: O=c1nc(N2CCOCC2)oc2c(-c3cccc4c3sc3ccccc34)cccc12
target under test: LOC_OS01G14860-cb001
thermal shift delta Tm: 0.6 °C

---

Catalogue of thermal shift delta Tm values
# Test system: LOC_OS02G45750-cb003
# assay overview: thermal shift delta Tm vs DMSO control; higher = stronger stabilization (binding)
# particulars: 12.5 µM; protein concentration 2 µM

smiles notation: C=CC(=O)Nc1cccc(Oc2nc(Nc3ccc(N4CCN(C)CC4)cc3)nc3ccsc23)c1
thermal shift delta Tm / °C: 1.44
//
smiles notation: O=C(Cc1ccc(-c2ccc(OCCN3CCOCC3)cc2)cn1)NCc1ccccc1
thermal shift delta Tm / °C: 0.29
//
smiles notation: N#CCNC(=O)c1ccc(-c2ccnc(Nc3ccc(N4CCOCC4)cc3)n2)cc1
thermal shift delta Tm / °C: 7.23
//
smiles notation: CN1CC[C@H](c2c(O)cc(O)c3c(=O)cc(-c4ccccc4Cl)oc23)[C@H](O)C1
thermal shift delta Tm / °C: 1.64
//
smiles notation: Cc1cn(-c2cc(NC(=O)c3ccc(C)c(Nc4nccc(-c5cnccn5)n4)c3)cc(C(F)(F)F)c2)cn1
thermal shift delta Tm / °C: 0.73
//
smiles notation: COc1cccc2cc(-c3nc([C@H]4CC[C@H](C(=O)O)CC4)n4ncnc(N)c34)[nH]c12
thermal shift delta Tm / °C: 0.26
//
smiles notation: Nc1nc(Nc2ccc(S(N)(=O)=O)cc2)nn1C(=O)c1c(F)cccc1F
thermal shift delta Tm / °C: 9.34
//
smiles notation: COc1cc(OC)cc(N(CCNC(C)C)c2ccc3ncc(-c4cnn(C)c4)nc3c2)c1
thermal shift delta Tm / °C: 1.81
//
smiles notation: Cn1c(=O)c(Oc2ccc(F)cc2F)cc2cnc(NC(CCO)CCO)nc21
thermal shift delta Tm / °C: 0.76

---

# Test system: LOC_OS03G27990-cb004
# assay overview: thermal shift delta Tm vs DMSO control; higher = stronger stabilization (binding)
# particulars: 12.5 µM; protein concentration 2 µM
Catalogue of thermal shift delta Tm values

smiles notation: Cc1cc(N2CCOCC2)cc2[nH]c(-c3c(NC[C@@H](O)c4cccc(Cl)c4)cc[nH]c3=O)nc12
thermal shift delta Tm, °C: 1.27
--
smiles notation: COc1cc2ncnc(Nc3cccc(Cl)c3)c2cc1OC
thermal shift delta Tm, °C: 0.56
--
smiles notation: Cc1[nH]c(/C=C2\C(=O)Nc3ccc(S(=O)(=O)Cc4c(Cl)cccc4Cl)cc32)c(C)c1C(=O)N1CCC[C@@H]1CN1CCCC1
thermal shift delta Tm, °C: 0.43
--
smiles notation: Cc1cnc(Nc2ccc(N3CCN(C)CC3)cc2)nc1Nc1cccc(S(=O)(=O)NC(C)(C)C)c1
thermal shift delta Tm, °C: 1.77
--
smiles notation: COc1ccc(-c2cc3c(C)nc(N)nc3n([C@H]3CC[C@H](OCCO)CC3)c2=O)cn1
thermal shift delta Tm, °C: 0.17
--
smiles notation: N#Cc1c(NC(=O)c2cccc3ccccc23)sc2c1CCCC2
thermal shift delta Tm, °C: 0.23
--
smiles notation: COC(=O)[C@]12CCC(C)(C)C[C@H]1[C@H]1C(=O)C=C3[C@@]4(C)C=C(C#N)C(=O)C(C)(C)[C@@H]4CC[C@@]3(C)[C@]1(C)CC2
thermal shift delta Tm, °C: -4.29
--
smiles notation: COc1cc2ncnc(Nc3ccc(O)c(Br)c3)c2cc1OC
thermal shift delta Tm, °C: 2.33

---

# Test system: LOC_OS02G07810-cb001
# assay overview: thermal shift delta Tm vs DMSO control; higher = stronger stabilization (binding)
# particulars: 12.5 µM; protein concentration 2 µM

compound: CC(C)c1cnn2c(NCc3ccccc3-n3cccn3)nc(OC3CCCNC3)nc12 (stereo not given)
thermal shift delta Tm, °C: 0.85
//
compound: Nc1nc2cc(-c3ccc4ncc(C(=O)N5CCOCC5)n4c3)ccc2o1
thermal shift delta Tm, °C: 0.05
//
compound: CC(C)(C)c1cnc(CSc2cnc(NC(=O)C3CCNCC3)s2)o1
thermal shift delta Tm, °C: 0.43
//
compound: CNC(=O)c1ccc(Nc2ncc(C(F)(F)F)c(NCc3nccnc3N(C)S(C)(=O)=O)n2)cc1
thermal shift delta Tm, °C: 0.24
//
compound: CC(C)(C)c1ccc(S(=O)(=O)/C=C/C#N)cc1
thermal shift delta Tm, °C: 0.63

---

# System: LOC_OS02G07810-cb001
# assay overview: thermal shift delta Tm vs DMSO control; higher = stronger stabilization (binding)
# particulars: 12.5 µM; protein concentration 2 µM
Counter-ions that a name gives are not always drawn.
Catalogue of thermal shift delta Tm values
property label: thermal shift delta Tm (°C)

compound: C[C@@H]1CN(C(=O)c2ccc(NC(=O)c3cc(O[C@H](C)c4c(Cl)ccc(F)c4Cl)c(N)nn3)cc2)C[C@H](C)N1 [Ensartinib (X-396)]
target under test: LOC_OS02G07810-cb001
observed measurement: 0.09
//
compound: COc1cc(N2CCN(C)CC2)ccc1Nc1ncc2c(n1)N(C)c1ccccc1C(=O)N2
target under test: LOC_OS02G07810-cb001
observed measurement: 0.41
//
compound: CC(C)(C)S(=O)(=O)c1ccc2nccc(Nc3n[nH]c4ccc(F)cc34)c2c1
target under test: LOC_OS02G07810-cb001
observed measurement: 0.19
//
compound: COCCOc1cnc2ccn([C@H](C)c3nnc4c(F)cc(-c5cnn(C)c5)cn34)c(=O)c2c1
target under test: LOC_OS02G07810-cb001
observed measurement: 0.15
//
compound: C[S+]([O-])c1ccc(-c2nc(-c3ccc(F)cc3)c(-c3ccncc3)[nH]2)cc1 (stereo not drawn)
target under test: LOC_OS02G07810-cb001
observed measurement: 1.46
//
compound: CN1CC[C@H](c2c(O)cc(O)c3c(=O)cc(-c4ccccc4Cl)oc23)[C@H](O)C1 [Flavopiridol HCl]
target under test: LOC_OS02G07810-cb001
observed measurement: 1.12
//
compound: O=C(NOCC(O)CO)c1cc(Br)c(F)c(F)c1Nc1ccc(I)cc1F (stereo not drawn)
target under test: LOC_OS02G07810-cb001
observed measurement: 2.41
//
compound: CC1(C)OC(=O)C=C[C@]2(C)[C@H]3CC[C@@]4(C)[C@H](c5ccoc5)OC(=O)[C@H]5O[C@]54[C@]3(C)C(=O)C[C@@H]12 [Obacunone]
target under test: LOC_OS02G07810-cb001
observed measurement: 0.27
